# assay_target: CDK9/CycT1 (Homo sapiens (Human), UniProt P50750)
# Sequence (P50750 whole entry, looked up): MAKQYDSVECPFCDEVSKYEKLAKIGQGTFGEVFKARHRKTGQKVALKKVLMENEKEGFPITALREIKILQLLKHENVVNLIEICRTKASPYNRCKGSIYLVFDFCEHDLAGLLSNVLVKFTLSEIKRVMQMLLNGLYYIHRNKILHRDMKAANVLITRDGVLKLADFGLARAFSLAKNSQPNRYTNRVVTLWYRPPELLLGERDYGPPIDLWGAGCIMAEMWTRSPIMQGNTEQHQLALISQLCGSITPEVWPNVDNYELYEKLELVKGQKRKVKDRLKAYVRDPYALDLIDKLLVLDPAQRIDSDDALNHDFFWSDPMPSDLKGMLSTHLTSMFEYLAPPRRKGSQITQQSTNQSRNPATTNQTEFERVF
# Sequence (O60563 whole entry partner, looked up): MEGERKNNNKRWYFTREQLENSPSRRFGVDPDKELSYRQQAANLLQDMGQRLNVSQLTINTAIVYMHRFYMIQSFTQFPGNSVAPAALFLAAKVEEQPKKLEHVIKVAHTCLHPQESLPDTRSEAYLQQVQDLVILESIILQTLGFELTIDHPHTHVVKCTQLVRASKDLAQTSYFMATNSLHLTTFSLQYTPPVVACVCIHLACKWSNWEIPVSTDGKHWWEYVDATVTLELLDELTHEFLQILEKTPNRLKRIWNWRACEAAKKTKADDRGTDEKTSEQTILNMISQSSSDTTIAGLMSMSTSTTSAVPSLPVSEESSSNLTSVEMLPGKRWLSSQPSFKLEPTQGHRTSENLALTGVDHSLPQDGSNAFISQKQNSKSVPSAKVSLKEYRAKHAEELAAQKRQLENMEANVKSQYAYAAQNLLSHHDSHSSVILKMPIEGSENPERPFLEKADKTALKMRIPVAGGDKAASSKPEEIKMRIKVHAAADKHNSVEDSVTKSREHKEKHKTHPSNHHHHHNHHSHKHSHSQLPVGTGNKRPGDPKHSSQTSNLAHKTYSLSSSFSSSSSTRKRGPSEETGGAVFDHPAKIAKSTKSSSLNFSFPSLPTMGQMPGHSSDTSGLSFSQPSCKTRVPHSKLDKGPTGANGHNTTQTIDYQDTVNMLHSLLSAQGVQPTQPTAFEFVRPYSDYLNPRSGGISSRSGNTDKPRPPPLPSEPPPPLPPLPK
# test_method_notes: Carna kinome panel
endpoint: IC50 (µM)
The response must be a number in µM with no trailing unit.

## Task Provide one value: measured IC50 of CCC1(c2ccccc2)C2=C(CC(C)(C)CC2=O)Nc2ncsc21 (stereo not shown) [Compound 1]
## Result 6.48

====

# test_method_notes: Plasma protein binding (RED), human
# Format: in vitro ADME
# protocol_conditions: 5 hours at 37° C., read-out: Plasma Protein Binding (Human, % bound) (converted)
endpoint: fraction unbound at 5 h, 5 μM
Form rule: numeric answer, no unit written next to it.

Examples from the recorded data:
molecule: CC[C@@]1(c2cccc(Cl)c2)C2=C(CC(C)(C)CC2=O)Nc2ncsc21
endpoint: fraction unbound at 5 h, 5 μM
reported_value: 0.018
--
molecule: CC[C@@]1(c2ccccc2)C2=C(CC(C)(C)CC2=O)Nc2ncsc21 [drawing 173]
endpoint: fraction unbound at 5 h, 5 μM
reported_value: 0.049
--
molecule: CC[C@@]1(c2cccc(C)c2)C2=C(CC(C)(C)CC2=O)Nc2ncsc21 [drawing 176]
endpoint: fraction unbound at 5 h, 5 μM
reported_value: 0.019
--
molecule: CC[C@@]1(c2cccc(F)c2)C2=C(CC(C)(C)CC2=O)Nc2ncsc21 [drawing 174]
endpoint: fraction unbound at 5 h, 5 μM
reported_value: 0.029
--
molecule: Cc1c[nH]c(-c2cnc(NCCNc3ccc(C#N)cn3)nc2-c2ccc(Cl)cc2Cl)n1 [drawing 180]
endpoint: fraction unbound at 5 h, 5 μM
reported_value: 0.039

## Task Provide one value: measured fraction unbound at 5 h, 5 μM of CC[C@@]1(c2cccc(OC)c2)C2=C(CC(C)(C)CC2=O)Nc2ncsc21
## Result 0.025

## Task Provide one value: measured fraction unbound at 5 h, 5 μM of CC1(C)CC(=O)C2=C(C1)Nc1ncsc1[C@]2(C)c1ccccc1 [drawing 172]
## Result 0.005

====

# Test system: MDR1
# test_method_notes: MDR1/MDCK assay (Example 4)
# Assay type: in vitro ADME
# protocol_conditions: dog, MDCK-MDR1; 5 μM, pH 7.4, 120 minutes
Mark fulfilled for Papp B→A at 120 min, 5 μM under 60 ×10⁻⁶ cm/s, not fulfilled if at or over.

molecule: CC1(C)CC(=O)C2=C(C1)Nc1n[nH]cc1[C@]2(C)c1ccccc1 [drawing 183]
class_assignment: not fulfilled

molecule: CC[C@@]1(c2ccccc2)C2=C(CC(C)(C)CC2=O)Nc2ncsc21 [drawing 182]
class_assignment: not fulfilled

## Task Please let me know if Cc1c[nH]c(-c2cnc(NCCNc3ccc(C#N)cn3)nc2-c2ccc(Cl)cc2Cl)n1 [drawing 185] shows Papp B→A at 120 min, 5 μM below 60 ×10⁻⁶ cm/s.
## Result not fulfilled

## Task Please let me know if CC[C@@]1(c2ccccc2)C2=C(CC(C)(C)CC2=O)Nc2n[nH]cc21 [drawing 184] shows Papp B→A at 120 min, 5 μM below 60 ×10⁻⁶ cm/s.
## Result fulfilled

## Task Please let me know if CC1(C)CC(=O)C2=C(C1)Nc1ncsc1[C@]2(C)c1ccccc1 [drawing 181] shows Papp B→A at 120 min, 5 μM below 60 ×10⁻⁶ cm/s.
## Result not fulfilled

====

# test_method_notes: Solubility in PBS
# protocol_conditions: 23 °C, aqueous buffer, thermodynamic from solid
Where solubility thermodynamic at 18 h equals or exceeds 40 µM, the correct label is Yes; where it does not, the label is No.

Reference set, count: 3
compound: CC[C@@]1(c2cccc(C)c2)C2=C(CC(C)(C)CC2=O)Nc2ncsc21 [drawing 176]
class_assignment: Yes
--
compound: CC[C@@]1(c2cccc(OC)c2)C2=C(CC(C)(C)CC2=O)Nc2ncsc21
class_assignment: Yes
--
compound: CC[C@@]1(c2cccc(F)c2)C2=C(CC(C)(C)CC2=O)Nc2ncsc21 [drawing 174]
class_assignment: Yes

## Task # check: solubility thermodynamic at 18 h of CC1(C)CC(=O)C2=C(C1)Nc1ncsc1[C@]2(C)c1ccccc1 [drawing 172] is greater than or equal to 40 µM
## Result No

## Task # check: solubility thermodynamic at 18 h of CC[C@@]1(c2ccccc2)C2=C(CC(C)(C)CC2=O)Nc2ncsc21 [drawing 173] is greater than or equal to 40 µM
## Result No

## Task # check: solubility thermodynamic at 18 h of CC1(C)CC(=O)C2=C(C1)Nc1n[nH]cc1[C@]2(C)c1ccccc1 [drawing 178] is greater than or equal to 40 µM
## Result Yes

## Task # check: solubility thermodynamic at 18 h of CC[C@@]1(c2cccc(Cl)c2)C2=C(CC(C)(C)CC2=O)Nc2ncsc21 is greater than or equal to 40 µM
## Result No
